Cited source for all entries: paper PMC7509987

Exercise: state measured pIC50 for each of the compounds provided.
Quick note: pIC50 means taking -log10 of the concentration in moles per liter.

Please indicate recorded pIC50 of `COc1cc(/C=C/C(=O)CC(=O)/C=C/c2ccc(O)c(OC)c2)ccc1O` measured with UniProtKB Q9JLT4.
Sequence (Q9JLT4 35-524): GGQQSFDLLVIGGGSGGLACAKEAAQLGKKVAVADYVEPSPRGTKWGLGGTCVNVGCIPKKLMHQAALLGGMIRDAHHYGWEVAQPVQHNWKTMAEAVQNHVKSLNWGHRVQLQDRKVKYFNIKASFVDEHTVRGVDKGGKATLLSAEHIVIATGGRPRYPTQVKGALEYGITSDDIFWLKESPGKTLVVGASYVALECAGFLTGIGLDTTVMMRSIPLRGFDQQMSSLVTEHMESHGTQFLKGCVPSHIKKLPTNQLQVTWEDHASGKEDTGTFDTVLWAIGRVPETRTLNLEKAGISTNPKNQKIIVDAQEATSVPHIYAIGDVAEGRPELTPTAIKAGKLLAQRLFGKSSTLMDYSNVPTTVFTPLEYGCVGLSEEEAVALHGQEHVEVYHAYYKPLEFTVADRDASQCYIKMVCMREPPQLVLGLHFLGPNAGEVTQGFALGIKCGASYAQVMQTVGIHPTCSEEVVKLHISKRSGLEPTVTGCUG
4.47

Please indicate recorded pIC50 of `O=C/C=C/c1ccccc1` measured with UniProtKB Q9JLT4.
3.65

====

experiment: Solubility in aqueous solutions; format: physicochemical
QUANTITY_KIND: solubility

Provide only the value of recorded solubility for `COc1cc(/C=C/C(=O)CC(=O)/C=C/c2ccc(O)c(OC)c2)ccc1O`
≤ 100 µM

====

QUANTITY_KIND: pIC50
Quick note: pIC50 means taking -log10 of the concentration in moles per liter.

Please indicate recorded pIC50 of `C=CC=O` measured with DmTrxR-CCS (Drosophila melanogaster, UniProt P91938).
Sequence (P91938 106-596): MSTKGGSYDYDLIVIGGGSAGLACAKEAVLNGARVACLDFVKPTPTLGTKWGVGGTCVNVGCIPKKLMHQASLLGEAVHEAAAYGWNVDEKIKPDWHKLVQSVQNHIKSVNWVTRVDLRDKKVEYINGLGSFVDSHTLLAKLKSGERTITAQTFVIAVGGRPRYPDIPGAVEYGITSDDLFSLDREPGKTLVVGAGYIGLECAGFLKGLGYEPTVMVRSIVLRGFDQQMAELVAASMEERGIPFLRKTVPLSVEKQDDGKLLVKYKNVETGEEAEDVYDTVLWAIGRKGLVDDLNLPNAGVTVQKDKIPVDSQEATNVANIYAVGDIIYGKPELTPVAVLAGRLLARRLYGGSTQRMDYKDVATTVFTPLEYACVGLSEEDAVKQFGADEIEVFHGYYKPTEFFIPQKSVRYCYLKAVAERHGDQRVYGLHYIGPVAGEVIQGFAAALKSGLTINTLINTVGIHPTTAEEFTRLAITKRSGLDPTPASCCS
5.15
